test system: Klebsiella pneumoniae; test: Antibacterial activity against Klebsiella pneumoniae 700603 by microdilution assay; format: functional
MIC values, listed per item

# compound `CCCCCCCCCCCO[C@@H]1[C@@H](O)[C@H](O[C@H]2O[C@H](CN)[C@@H](O)[C@H](O)[C@H]2N)[C@@H](N)C[C@H]1N` ; its MIC = > 128 µg/mL

For reference, reported MIC for NC[C@H]1O[C@H](O[C@H]2[C@H](O)[C@@H](O[C@H]3O[C@H](CO)[C@@H](O)[C@H](N)[C@H]3O)[C@H](N)C[C@@H]2N)[C@H](N)C[C@@H]1O [TOBRAMYCIN] stands at 4 to 8 µg/mL

Short answer for `CCCCCCCO[C@@H]1[C@@H](N)[C@@H](O[C@H]2[C@H](O)[C@@H](O)[C@H](N)C[C@@H]2N)O[C@H](CN)[C@H]1O` : MIC was > 128 µg/mL

Query NC[C@@H]1O[C@H](O[C@H]2[C@@H](O)[C@H](O[C@@H]3[C@@H](O)[C@H](N)C[C@H](N)[C@H]3O[C@H]3O[C@H](CN)[C@@H](O)[C@H](O)[C@H]3N)O[C@@H]2CO)[C@H](N)[C@@H](O)[C@@H]1O [FRAMYCETIN] yields MIC of 4 to 8 µg/mL

Measured MIC of `CCCCCCCCCO[C@@H]1[C@@H](N)[C@@H](O[C@H]2[C@H](O)[C@@H](O)[C@H](N)C[C@@H]2N)O[C@H](CN)[C@H]1OCCCCCCCCC` : 16 to 32 µg/mL
